- System: Mycobacterium tuberculosis
- ASSAY METHOD TEXT: Antibacterial activity against wild type Mycobacterium tuberculosis H37Rv-LP DREAM8 strain expressing codon-optimized DsRed assessed growth inhibition incubated for 5 days by fluorescence spectrophotometric assay
- Format: functional
- TEST CONTEXT: H37Rv-LP DREAM8, 120 h, time 5 day
I'd appreciate it if you could supply IC90 values for the items below.

Please fill in: IC90 reported for `COc1ccc(-c2ccc3c(N)c(C(=O)N4CCOCC4)sc3n2)cc1` = > 100 µM

Please fill in: IC90 reported for `COc1ccc(-c2cc(C(F)(F)F)c3c(N)c(C(=O)NCCc4ccccc4)sc3n2)cc1` = > 100 µM

Please fill in: IC90 reported for `COc1ccc(-c2cc(C(F)(F)F)c3c(N)c(C(=O)Nc4ccccc4)sc3n2)cc1` = > 100 µM

Please fill in: IC90 reported for `Cc1ccc(NC(=O)c2sc3nc(-c4ccccc4)cc(C(F)(F)F)c3c2N)cc1` = > 100 µM

Please fill in: IC90 reported for `Nc1c(C(=O)N2CC(F)(F)C2)sc2nc(-c3ccccc3)ccc12` = > 100 µM
